Entries and their inhibition values follow.
# Species: Homo sapiens
# protocol_details: Inhibition of PDGF-BB-induced Rac activation in human SMC assessed as intracellular Rac-GTP level at 25 uM incubated for 4 hrs prior to PDGF-BB stimulation for 2 mins by G-LISA
# Assay type: cell-based

compound	inhibition
Cc1ccc(-c2cc(C(=O)Nc3ccc(S(=O)(=O)N4CCCC(C)C4)cc3)[nH]n2)c(O)c1C (configuration not stated)	68.3%
Cc1ccc(-c2cc(C(=O)Nc3ccc(S(=O)(=O)N4CCC(C)CC4)cc3)[nH]n2)c(O)c1C	46.5%
O=C(Nc1ccc(S(=O)(=O)N2CCCCC2)cc1)c1cc(-c2ccccc2O)n[nH]1	61.1%
Cc1cc(C)c(O)c(-c2cc(C(=O)Nc3ccc(S(=O)(=O)N4CCC(C)CC4)cc3)[nH]n2)c1	45.5%
Cc1cc(O)c(-c2cc(C(=O)Nc3ccc(S(=O)(=O)N4CCC(C)CC4)cc3)[nH]n2)cc1C	21.9%
CC1CCN(S(=O)(=O)c2ccc(NC(=O)c3cc(-c4ccccc4O)n[nH]3)cc2)CC1	51.9%
Cc1ccc(-c2cc(C(=O)Nc3ccc(S(=O)(=O)N4CCCCCC4)cc3)[nH]n2)c(O)c1	26.1%
Cc1ccc(-c2cc(C(=O)Nc3ccc(S(=O)(=O)N4CCCCC4)cc3)[nH]n2)c(O)c1C	59.3%
Cc1ccc(-c2cc(C(=O)Nc3ccc(S(=O)(=O)N4CCCC(C)C4)cc3)[nH]n2)c(O)c1 (configuration not stated)	65.3%
Cc1ccc(-c2cc(C(=O)Nc3ccc(S(=O)(=O)N4CCCCCC4)cc3)[nH]n2)c(O)c1C	40.8%
CC1CCCN(S(=O)(=O)c2ccc(NC(=O)c3cc(-c4ccccc4O)n[nH]3)cc2)C1 (configuration not stated)	67.4%
